The measurements presented in this section are drawn from PubChem BioAssay (NCI).

Parameter GI50: see the listing below.
system: K-562 leukemia; test: NCI tumour cell line growth inhibition, 48 h

{"COMPOUND": "CC12OC(C(=O)C13CC3)C1C(=O)c3c(O)ccc(O)c3C(=O)C12 (stereo unspecified)", "SYSTEM": "K-562 leukemia", "GI50": "13.8 µM"}
{"COMPOUND": "O=C(Nc1ccc(-n2cc(-c3ccncc3)c(-c3ccc(O)c(Cl)c3)n2)cc1)c1ccc(Cl)c(C(F)(F)F)c1", "SYSTEM": "K-562 leukemia", "GI50": "1.37 µM"}
{"COMPOUND": "Cc1nc(NS(=O)(=O)c2ccc(NCN3C(=O)c4ccccc4C3=O)cc2)oc1C", "SYSTEM": "K-562 leukemia", "GI50": "> 100 µM"}
{"COMPOUND": "CCCCC#Cc1c(I)n(C2OC(CO[Si](C)(C)C(C)(C)C)C3OC(C)(C)OC32)c(=O)n(C(=O)c2ccccc2)c1=O (stereo unspecified)", "SYSTEM": "K-562 leukemia", "GI50": "15 µM"}
{"COMPOUND": "Fc1ccc2c(c1)C1=C(CCC2)C(c2ccc(Cl)cc2)NC(=S)N1 (stereo unspecified)", "SYSTEM": "K-562 leukemia", "GI50": "32.4 µM"}
{"COMPOUND": "COc1cc(OC)c2c(=O)cc(-c3ccccc3OCc3ccccc3)oc2c1OC", "SYSTEM": "K-562 leukemia", "GI50": "> 100 µM"}

---

test system: K-562 leukemia; test: NCI tumour cell line growth inhibition, 48 h
QUANTITY MEASURED: TGI

{"COMPOUND": "CC(C)OP(=O)(OC(C)C)C(C(C)C)N(C)C(N)=NC#N (stereo not drawn)", "SYSTEM": "K-562 leukemia", "QUANTITY MEASURED": "TGI", "RESULT": "> 100 µM"}
{"COMPOUND": "O=C1OC(=O)C23CSCC12C1C=CC3O1 (stereo not drawn)", "SYSTEM": "K-562 leukemia", "QUANTITY MEASURED": "TGI", "RESULT": "> 100 µM"}
{"COMPOUND": "CC(C)(C)c1cc(OCc2nnc3sc(Cc4ccccc4)nn23)c(Cl)cc1OCc1nnc2sc(Cc3ccccc3)nn12", "SYSTEM": "K-562 leukemia", "QUANTITY MEASURED": "TGI", "RESULT": "> 100 µM"}

---

test system: ACHN renal; test: NCI tumour cell line growth inhibition, 48 h
Parameter TGI: see the listing below.

{"MOLECULE": "COc1ccc(CSC2=C(C#N)C(=O)NC3(CCCCC3)S2)cc1", "TGI": "> 100 µM"}
{"MOLECULE": "CC(OP(=O)(O)O)C(N)C(=O)O (stereo unspecified)", "TGI": "> 100 µM"}
{"MOLECULE": "Cn1c2ccc(Cl)cc2c2ccc3c(c21)C(=O)C=CC3=O", "TGI": "> 10 µM"}
{"MOLECULE": "O=C1CCCCC/C1=C\\c1cccc(F)c1", "TGI": "> 100 µM"}
{"MOLECULE": "COC(=O)C(=O)C(C(=O)C(=O)Nc1ccccc1[N+](=O)[O-])c1nc2ccc([N+](=O)[O-])cc2[nH]c1=O (stereo unspecified)", "TGI": "> 100 µM"}
{"MOLECULE": "N#CC1=C(N)NC(N2CCOCC2)=NC12Nc1ccccc1O2 (stereo unspecified)", "TGI": "> 100 µM"}

---

system: OVCAR-3 ovarian; test: NCI tumour cell line growth inhibition, 48 h

{"COMPOUND": "COC(=O)CC1(O)C=CC(=O)C=C1", "TGI": "13.7 µM"}
{"COMPOUND": "CC(=O)OCC1OC(SC2=NC(=O)CS2)C(OC(C)=O)C(OC(C)=O)C1OC(C)=O (centres undefined)", "TGI": "> 100 µM"}
{"COMPOUND": "O=C1N2CCC[C@H]2CS1(=O)=O", "TGI": "31.4 µM"}
{"COMPOUND": "Nc1c(C(=O)c2cccc(C(O)CO)c2)cnn1-c1ccc(F)cc1 (centres undefined)", "TGI": "> 25 µM"}

---

system: RXF 393 renal; assay: NCI tumour cell line growth inhibition, 48 h
QUANTITY MEASURED: TGI

{"COMPOUND": "FC(F)c1ncc(-c2ccc(C(F)(F)F)cc2)c(NC2CCCCCC2)n1", "RESULT": "> 10 µM"}
{"COMPOUND": "COC(=O)/C(C#N)=C1\\CCC(OC)N1C (stereo not given)", "RESULT": "> 100 µM"}
{"COMPOUND": "O=C1OC(=O)C23CSCC12C1C=CC3O1 (stereo not given)", "RESULT": "> 100 µM"}
{"COMPOUND": "CCOC(=O)C1CCC(=O)N1C(=O)c1cccc(Cl)c1 (stereo not given)", "RESULT": "> 100 µM"}
{"COMPOUND": "CCOC(=O)[C@@]12C(C)=CC(=O)O[C@]1(C)C1C(=O)NC(=O)C12 (stereo not given in full)", "RESULT": "> 100 µM"}

---

test system: A498 renal; experiment: NCI tumour cell line growth inhibition, 48 h
Parameter TGI: see the listing below.
QUANTITY MEASURED: TGI (µM)

{"COMPOUND": "CN1CCN(Cc2ccc(NC(=O)c3[nH]ncc3Nc3ncnc4[nH]ccc34)cc2)CC1", "SYSTEM": "A498 renal", "QUANTITY MEASURED": "TGI", "VALUE UNIT": "µM", "BOUND SIGN": "=", "NUMBER": 0.406}
{"COMPOUND": "OCCCCC#Cc1ccccc1C#Cc1cccnc1", "SYSTEM": "A498 renal", "QUANTITY MEASURED": "TGI", "VALUE UNIT": "µM", "BOUND SIGN": "=", "NUMBER": 88.4}
{"COMPOUND": "C/C(=N\\Nc1nc2ccccc2[nH]1)c1ncccn1", "SYSTEM": "A498 renal", "QUANTITY MEASURED": "TGI", "VALUE UNIT": "µM", "BOUND SIGN": "=", "NUMBER": 2.23}
{"COMPOUND": "CC(c1ccccc1)n1cncc1C(=O)NN1CCN(C)CC1 (configuration not stated)", "SYSTEM": "A498 renal", "QUANTITY MEASURED": "TGI", "VALUE UNIT": "µM", "BOUND SIGN": ">", "NUMBER": 10}
{"COMPOUND": "COc1ccc2nc(C)cc(Sc3nc4ccccc4s3)c2c1", "SYSTEM": "A498 renal", "QUANTITY MEASURED": "TGI", "VALUE UNIT": "µM", "BOUND SIGN": "=", "NUMBER": 4.87}
{"COMPOUND": "c1ccc2c[n+](CCCC[n+]3ccc4ccccc4c3)ccc2c1", "SYSTEM": "A498 renal", "QUANTITY MEASURED": "TGI", "VALUE UNIT": "µM", "BOUND SIGN": ">", "NUMBER": 100}
{"COMPOUND": "O=C1CC(c2ccsc2)n2cccc21 (configuration not stated)", "SYSTEM": "A498 renal", "QUANTITY MEASURED": "TGI", "VALUE UNIT": "µM", "BOUND SIGN": ">", "NUMBER": 100}
{"COMPOUND": "O=c1[nH]nc(-c2ccccc2)c2[nH]c3c(c12)Cc1ccccc1-3", "SYSTEM": "A498 renal", "QUANTITY MEASURED": "TGI", "VALUE UNIT": "µM", "BOUND SIGN": ">", "NUMBER": 100}
{"COMPOUND": "COc1ccc(OC)c2c(C)ccnc12", "SYSTEM": "A498 renal", "QUANTITY MEASURED": "TGI", "VALUE UNIT": "µM", "BOUND SIGN": ">", "NUMBER": 100}
{"COMPOUND": "COc1cccc(NC(=O)CC(=O)n2nc(-c3ccccc3)c(N=Nc3ccc(Cl)cc3)c2-c2ccccc2)c1", "SYSTEM": "A498 renal", "QUANTITY MEASURED": "TGI", "VALUE UNIT": "µM", "BOUND SIGN": ">", "NUMBER": 83.1}
{"COMPOUND": "Nc1c(C(=O)c2cccc(C(O)CO)c2)cnn1-c1ccc(F)cc1 (configuration not stated)", "SYSTEM": "A498 renal", "QUANTITY MEASURED": "TGI", "VALUE UNIT": "µM", "BOUND SIGN": ">", "NUMBER": 25}
{"COMPOUND": "NC1=NC(SCc2ccccc2CCl)c2ncn(Cc3ccccc3CCl)c2N1 (configuration not stated)", "SYSTEM": "A498 renal", "QUANTITY MEASURED": "TGI", "VALUE UNIT": "µM", "BOUND SIGN": "=", "NUMBER": 25.3}
{"COMPOUND": "Cc1ccc(S(=O)(=O)OCCC2CN(C(=O)OCc3ccccc3)C(C)(C)O2)cc1 (configuration not stated)", "SYSTEM": "A498 renal", "QUANTITY MEASURED": "TGI", "VALUE UNIT": "µM", "BOUND SIGN": ">", "NUMBER": 100}
{"COMPOUND": "NC(N)=NC(N)=Nc1ccc(C(=O)O)cc1", "SYSTEM": "A498 renal", "QUANTITY MEASURED": "TGI", "VALUE UNIT": "µM", "BOUND SIGN": ">", "NUMBER": 100}
{"COMPOUND": "CCCCNS(=O)(=O)c1ccc(-c2ccc3c(c2)-c2ccc(S(=O)(=O)NCCCC)cc2S3(=O)=O)cc1", "SYSTEM": "A498 renal", "QUANTITY MEASURED": "TGI", "VALUE UNIT": "µM", "BOUND SIGN": "=", "NUMBER": 26.6}
{"COMPOUND": "COC(=O)CC1(O)C=CC(=O)C=C1", "SYSTEM": "A498 renal", "QUANTITY MEASURED": "TGI", "VALUE UNIT": "µM", "BOUND SIGN": "=", "NUMBER": 15.9}
{"COMPOUND": "CC(=O)OCC1OC(SC2=NC(=O)CS2)C(OC(C)=O)C(OC(C)=O)C1OC(C)=O (configuration not stated)", "SYSTEM": "A498 renal", "QUANTITY MEASURED": "TGI", "VALUE UNIT": "µM", "BOUND SIGN": ">", "NUMBER": 100}
